- testName: Cell Viability - HUV-EC-C (AID 542);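 note: cells exposed to compound for 40 hours; nearly all actives have a fitted effect of over 35% in size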
- recordedConditions: HUV-EC-C endothelial cell viability, qHTS; series mostly up to 92.2 µM
Records with an inconclusive call do not appear. Active and inactive are the calls of the source. Calls come from the whole dose curve; as a rule, active = well fitted cell-killing curve with a large enough effect; inconclusive = small, poorly fitted or top-dose-only effect, or effect the other way; inactive = flat fitted curve, though single readings scatter.
Labels: active, inactive

[[record]]
compound = "CC(O)CO (stereo not drawn)"
classassignment = "inactive"

[[record]]
compound = "O=S(=O)(O)O"
classassignment = "inactive"

[[record]]
compound = "CC(C)(C)NC(=O)[C@@H]1C[C@@H]2CCCC[C@@H]2CN1C[C@@H](O)[C@H](Cc1ccccc1)NC(=O)[C@H](CC(N)=O)NC(=O)c1ccc2ccccc2n1"
classassignment = "active"

[[record]]
compound = "Cc1ccccc1"
classassignment = "inactive"

[[record]]
compound = "Nc1ccn([C@H]2CS[C@@H](CO)O2)c(=O)n1"
classassignment = "inactive"

[[record]]
compound = "IC(I)I"
classassignment = "inactive"

[[record]]
compound = "CCCCCCCC/C=C\\CCCCCCCC(=O)O"
classassignment = "inactive"

[[record]]
compound = "CCOc1ccc2c(c1)C(C)=CC(C)(C)N2"
classassignment = "inactive"

